Ref: patent US20240360238A1

# assayed.target: T1, purified human CD117 ectodomain (R&D Systems #332-SR) (human, UniProt P10721 26-524)
# T1 construct: extracellular domain; Bought protein; also called c-kit; purified recombinant human CD117 ectodomain
# T1 sequence (P10721 26-524): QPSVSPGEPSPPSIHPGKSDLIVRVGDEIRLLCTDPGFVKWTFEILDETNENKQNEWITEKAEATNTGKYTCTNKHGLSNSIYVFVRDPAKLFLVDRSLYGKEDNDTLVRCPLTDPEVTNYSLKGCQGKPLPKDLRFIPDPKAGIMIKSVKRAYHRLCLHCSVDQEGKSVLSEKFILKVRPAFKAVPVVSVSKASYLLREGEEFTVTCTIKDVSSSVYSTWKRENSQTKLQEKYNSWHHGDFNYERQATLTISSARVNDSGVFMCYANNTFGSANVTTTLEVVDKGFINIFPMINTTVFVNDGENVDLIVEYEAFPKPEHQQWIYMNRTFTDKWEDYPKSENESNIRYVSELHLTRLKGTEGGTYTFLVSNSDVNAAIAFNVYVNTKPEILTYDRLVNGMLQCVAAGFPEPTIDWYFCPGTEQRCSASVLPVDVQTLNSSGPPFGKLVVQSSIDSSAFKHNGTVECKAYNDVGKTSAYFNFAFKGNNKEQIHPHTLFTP
# test.protocol: BLI (Octet Red96), IgG1 on anti-human Fc sensor, 33.3 and 11 nM ectodomain, 1:1 fit

binder	kon [M⁻¹ s⁻¹]
HC-79/LC-79 (Ab79) (antibody, IgG1, V domains shown, Purified human antibody tested as an IgG1; hIgG1/hKappa; also called Antibody 79) VH: QVQLVQSGAAVKKPGESLKISCKGSGYRFTTYWIGWVRQMPGKGLEWMGIIYPGDSDTRYSPSFQGQVTISAGKSISTAYLQWSSLKASDTAMYYCARHGRGYNGYEGAFDIWGQGTMVTVSS VL: DIQLTQSPSSLSASVGDRVTITCRASQGVGSALAWYQQKPGKAPKLLIYDASILESGVPSRFSGSGSGTDFTLTISSLQPEDFATYYCQQFNSYPLTFGGGTKVEIK	316000
